- System: NCI-H211 (Small Cell Lung Carcinoma)
- assay: combination Emax (second highest fraction inhibited in the dose matrix, 72 h); higher = more inhibition; extreme values may be limits of the assay
combination Emax values, listed per item
recorded metric: combination Emax

| molecule | test target | val |
| --- | --- | --- |
| N#Cc1cnc(Nc2cc(NC[C@H]3CNCCO3)c(C(F)(F)F)cn2)cn1 [SRA737] + O=c1[nH]cc(F)c(=O)[nH]1 [5-Fluorouracil] (first compound max 10 µM, 7x7, partner max 20 µM) | NCI-H211 (Small Cell Lung Carcinoma) | 0.8 |
| C[C@@H]1COCCN1c1cc(C2([S@](C)(=N)=O)CC2)nc(-c2ccnc3[nH]ccc23)n1 [AZD6738] + C1CC(C1)(C(=O)[O-])C(=O)[O-].N.N.[Pt+2] [Carboplatin] (first compound max 10 µM, 7x7, partner max 10 µM) | NCI-H211 (Small Cell Lung Carcinoma) | 0.61 |
| Cn1cnc2c(F)c(Nc3ccc(Br)cc3Cl)c(C(=O)NOCCO)cc21 [Selumetinib] + C=CCn1c(=O)c2cnc(Nc3ccc(N4CCN(C)CC4)cc3)nc2n1-c1cccc(C(C)(C)O)n1 [AZD1775] (first compound max 10 µM, partner max 1 µM) | NCI-H211 (Small Cell Lung Carcinoma) | 0.831 |
| Cn1cnc2c(F)c(Nc3ccc(Br)cc3Cl)c(C(=O)NOCCO)cc21 [Selumetinib] + CC(C)n1c(=O)n(C)c2cnc3cc(F)c(-c4ccc(OCCCN5CCCCC5)nc4)cc3c21 [AZD1390] (first compound max 10 µM, 7x7, partner max 0.3 µM) | NCI-H211 (Small Cell Lung Carcinoma) | 0.239 |
| CN(CCO)CC[C@H](CSc1ccccc1)Nc1ccc(S(=O)(=O)NC(=O)c2ccc(N3CCC([C@@H](O)c4ccccc4-c4ccc(Cl)cc4)CC3)cc2)cc1S(=O)(=O)C(F)(F)F [AZD4320] + Nc1ccn([C@@H]2O[C@H](CO)[C@@H](O)C2(F)F)c(=O)n1 [Gemcitabine] (first compound max 1 µM, 7x7, partner max 0.3 µM) | NCI-H211 (Small Cell Lung Carcinoma) | 1 |
| O=C(c1cc(Cc2n[nH]c(=O)c3ccccc23)ccc1F)N1CCN(C(=O)C2CC2)CC1 [Olaparib] + Cc1c2c(nn1C)CSCc1cc(n(C)n1)CSc1cc(c3ccccc3c1)OCCCc1c(C(=O)O)n(C)c3c-2c(Cl)ccc13 [AZD5991] (first compound max 10 µM, 7x7, partner max 1 µM) | NCI-H211 (Small Cell Lung Carcinoma) | 0.957 |
| CN(CCO)CC[C@H](CSc1ccccc1)Nc1ccc(S(=O)(=O)NC(=O)c2ccc(N3CCC([C@@H](O)c4ccccc4-c4ccc(Cl)cc4)CC3)cc2)cc1S(=O)(=O)C(F)(F)F [AZD4320] + CS(=O)(=O)CCNCc1ccc(-c2ccc3ncnc(Nc4ccc(OCc5cccc(F)c5)c(Cl)c4)c3c2)o1 [Lapatinib] (first compound max 1 µM, 7x7, partner max 10 µM) | NCI-H211 (Small Cell Lung Carcinoma) | 1 |

----------
- Tested on: DOV13 (Ovarian Carcinoma)
- assay: Bliss excess, mean over the matrix (fraction); higher = more synergy
Label label 1 for high-side Bliss excess (at or above -0.02) and label 0 for low-side Bliss excess (below it).

| compound | class label |
| --- | --- |
| N#Cc1cnc(Nc2cc(NC[C@H]3CNCCO3)c(C(F)(F)F)cn2)cn1 [SRA737] + C=CCn1c(=O)c2cnc(Nc3ccc(N4CCN(C)CC4)cc3)nc2n1-c1cccc(C(C)(C)O)n1 [AZD1775] (first compound max 10 µM, partner max 1 µM) | label 1 |
| Cc1cc2ncnn2cc1Nc1ncc2c(n1)n(C1CCOCC1)c(=O)n2C [AZD7648] + C=CCn1c(=O)c2cnc(Nc3ccc(N4CCN(C)CC4)cc3)nc2n1-c1cccc(C(C)(C)O)n1 [AZD1775] (first compound max 10 µM, partner max 1 µM) | label 0 |
| Cc1nc(-c2cn3c(n2)-c2ccc(-c4cnn(C(C)(C)C(N)=O)c4)cc2OCC3)n(C(C)C)n1 [Taselisib] + O=C(Nc1ccc2[nH]nc(-c3ccncc3)c2c1)[C@@H]1CCN(CC(=O)N2CCN(c3ccc(-c4ncccn4)cc3)CC2)C1 [SCH772984] (first compound max 10 µM, 7x7, partner max 5 µM) | label 1 |
| C=CCn1c(=O)c2cnc(Nc3ccc(N4CCN(C)CC4)cc3)nc2n1-c1cccc(C(C)(C)O)n1 [AZD1775] + C1CN(CCC1(C(=O)N[C@@H](CCO)C2=CC=C(C=C2)Cl)N)C3=NC=NC4=C3C=CN4 [Capivasertib] (first compound max 3 µM, partner max 3 µM) | label 1 |
| O=C(c1cc(Cc2n[nH]c(=O)c3ccccc23)ccc1F)N1CCN(C(=O)C2CC2)CC1 [Olaparib] + Cc1c2c(nn1C)CSCc1cc(n(C)n1)CSc1cc(c3ccccc3c1)OCCCc1c(C(=O)O)n(C)c3c-2c(Cl)ccc13 [AZD5991] (first compound max 10 µM, 7x7, partner max 1 µM) | label 1 |
| O=C(c1cc(Cc2n[nH]c(=O)c3ccccc23)ccc1F)N1CCN(C(=O)C2CC2)CC1 [Olaparib] + CC1(C)CCC(CN2CCN(c3ccc(C(=O)NS(=O)(=O)c4ccc(NCC5CCOCC5)c([N+](=O)[O-])c4)c(Oc4cnc5[nH]ccc5c4)c3)CC2)=C(c2ccc(Cl)cc2)C1 [Venetoclax] (first compound max 10 µM, 7x7, partner max 1 µM) | label 0 |
| Cc1c2c(nn1C)CSCc1cc(n(C)n1)CSc1cc(c3ccccc3c1)OCCCc1c(C(=O)O)n(C)c3c-2c(Cl)ccc13 [AZD5991] + C=CCn1c(=O)c2cnc(Nc3ccc(N4CCN(C)CC4)cc3)nc2n1-c1cccc(C(C)(C)O)n1 [AZD1775] (first compound max 1 µM, partner max 1 µM) | label 0 |
| Cc1cc2ncnn2cc1Nc1ncc2c(n1)n(C1CCOCC1)c(=O)n2C [AZD7648] + CN(C)CCCOc1ccc(-c2ccc3ncc4c(c3c2)n(C2CCOCC2)c(=O)n4C)cn1 [AZD0156] (first compound max 10 µM, 7x7, partner max 1 µM) | label 1 |
| CC1(C)CCC(CN2CCN(c3ccc(C(=O)NS(=O)(=O)c4ccc(NCC5CCOCC5)c([N+](=O)[O-])c4)c(Oc4cnc5[nH]ccc5c4)c3)CC2)=C(c2ccc(Cl)cc2)C1 [Venetoclax] + CN(C)CCCOc1ccc(-c2ccc3ncc4c(c3c2)n(C2CCOCC2)c(=O)n4C)cn1 [AZD0156] (first compound max 1 µM, 7x7, partner max 1 µM) | label 0 |
| Cn1cnc2c(F)c(Nc3ccc(Br)cc3Cl)c(C(=O)NOCCO)cc21 [Selumetinib] + C[C@@H]1COCCN1C2=NC(=NC(=C2)C3(CC3)[S@](=N)(=O)C)C4=C5C=CNC5=NC=C4 [AZD6738] (first compound max 10 µM, 7x7, partner max 10 µM) | label 0 |
| CN(CCO)CC[C@H](CSc1ccccc1)Nc1ccc(S(=O)(=O)NC(=O)c2ccc(N3CCC([C@@H](O)c4ccccc4-c4ccc(Cl)cc4)CC3)cc2)cc1S(=O)(=O)C(F)(F)F [AZD4320] + C=CCn1c(=O)c2cnc(Nc3ccc(N4CCN(C)CC4)cc3)nc2n1-c1cccc(C(C)(C)O)n1 [AZD1775] (first compound max 1 µM, partner max 1 µM) | label 1 |
| COc1cccc(OCCCN)c1-c1cc(Nc2cnc(C#N)cn2)n[nH]1 [Prexasertib] + CN(C)CCCOc1ccc(-c2ccc3ncc4c(c3c2)n(C2CCOCC2)c(=O)n4C)cn1 [AZD0156] (first compound max 1 µM, 7x7, partner max 1 µM) | label 0 |
| Cc1nc(Nc2ncc(C(=O)Nc3c(C)cccc3Cl)s2)cc(N2CCN(CCO)CC2)n1 [Dasatinib] + CC(=O)Nc1cccc(-n2c(=O)n(C3CC3)c(=O)c3c(Nc4ccc(I)cc4F)n(C)c(=O)c(C)c32)c1 [Trametinib] (first compound max 2 µM, 7x7, partner max 1 µM) | label 1 |

----------
Bliss excess values, listed per item
- Tested on: NCI-H1694 (Small Cell Lung Carcinoma)
- assay: Bliss excess, mean over the matrix (fraction); higher = more synergy
recorded metric: Bliss excess

| compound | val |
| --- | --- |
| Cc1c2c(nn1C)CSCc1cc(n(C)n1)CSc1cc(c3ccccc3c1)OCCCc1c(C(=O)O)n(C)c3c-2c(Cl)ccc13 [AZD5991] + Cc1cc2ncnn2cc1Nc1ncc2c(n1)n(C1CCOCC1)c(=O)n2C [AZD7648] (first compound max 1 µM, 7x7, partner max 10 µM) | -0.0059 |
| COc1nnc2ccc(N3CCC(c4ccc(OCCN5CCN(C)C(=O)[C@H]5C)cc4)CC3)nn12 [AZD5153] + C=CCn1c(=O)c2cnc(Nc3ccc(N4CCN(C)CC4)cc3)nc2n1-c1cccc(C(C)(C)O)n1 [AZD1775] (first compound max 1 µM, partner max 1 µM) | -0.0205 |
| CCN(CCO)CCCOc1ccc2c(Nc3cc(CC(=O)Nc4cccc(F)c4)[nH]n3)ncnc2c1 [AZD2811] + O=C(c1cc(Cc2n[nH]c(=O)c3ccccc23)ccc1F)N1CCN(C(=O)C2CC2)CC1 [Olaparib] (first compound max 1 µM, 7x7, partner max 10 µM) | 0.0406 |

The values you see were collected from the supplement of paper PMC11061612.
